EXPERIMENTAL_CONDITIONS: 293.15 K; 101.33 kPa; Liquid; Falling or rolling sphere viscometry
MEASURED_ATTRIBUTE: viscosity (mPa·s)

Here are 3 compounds together with their reported answers.
| COMPOUND | viscosity (mPa·s) |
| --- | --- |
| CCOC(=O)C(C)CC (stereo not given) [ethyl 2-methylbutanoate] | 0.831 |
| CO | 0.577 |
| CCO | 1.16 |

a: CCCCCC(=O)OCC [ethyl hexanoate]
b: CCCO
Lower value for measured viscosity? Options: a , b API: response body contains the label of the selected item.
a
(a: 0.816 mPa·s, b: 2.188 mPa·s)
